- targetDesc: FLAG-Ago1 (Drosophila melanogaster, UniProt A1Z9J5 1-950)
- Sequence (A1Z9J5 entry or part of it): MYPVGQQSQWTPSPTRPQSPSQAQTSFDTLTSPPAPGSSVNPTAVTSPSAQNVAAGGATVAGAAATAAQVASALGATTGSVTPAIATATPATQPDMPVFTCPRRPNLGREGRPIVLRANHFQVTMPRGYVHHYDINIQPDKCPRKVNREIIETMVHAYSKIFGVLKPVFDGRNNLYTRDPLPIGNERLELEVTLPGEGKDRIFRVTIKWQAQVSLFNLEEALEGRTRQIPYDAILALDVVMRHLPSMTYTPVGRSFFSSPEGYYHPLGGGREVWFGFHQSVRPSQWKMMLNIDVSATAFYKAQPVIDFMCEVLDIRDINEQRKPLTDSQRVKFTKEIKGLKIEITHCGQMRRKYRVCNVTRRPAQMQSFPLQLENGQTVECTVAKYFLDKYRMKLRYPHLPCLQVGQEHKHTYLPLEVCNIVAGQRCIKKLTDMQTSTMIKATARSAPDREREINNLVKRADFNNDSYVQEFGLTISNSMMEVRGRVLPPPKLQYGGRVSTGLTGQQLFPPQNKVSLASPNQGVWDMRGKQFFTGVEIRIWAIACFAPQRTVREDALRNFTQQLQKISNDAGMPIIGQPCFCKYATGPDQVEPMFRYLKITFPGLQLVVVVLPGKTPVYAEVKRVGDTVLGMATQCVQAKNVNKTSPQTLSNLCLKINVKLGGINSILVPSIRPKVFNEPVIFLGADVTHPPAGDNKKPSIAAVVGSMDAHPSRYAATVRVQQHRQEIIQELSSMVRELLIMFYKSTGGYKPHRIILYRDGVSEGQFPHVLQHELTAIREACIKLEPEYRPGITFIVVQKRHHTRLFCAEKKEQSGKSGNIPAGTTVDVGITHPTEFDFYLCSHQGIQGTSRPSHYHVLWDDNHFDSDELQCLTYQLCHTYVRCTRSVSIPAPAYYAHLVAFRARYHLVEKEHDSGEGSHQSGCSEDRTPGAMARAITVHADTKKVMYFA
- methodDescription: RBNS; bantam guide; RBNS: 20 mM HEPES-KOH pH 7.9, 100 mM KOAc, 3.5 mM Mg(OAc) (magnesium acetate), 0.05% CHAPS, 2 mM DTT, 8% glycerol, BSA, tRNA, 25 C 2 h; filter binding: 25 mM HEPES-KOH pH 7.9, 110 mM KOAc, 3.5 mM magnesium acetate, 2 mM DTT, BSA, tRNA, 8% glycerol, 25 C 2 h; competition: 18 mM HEPES-KOH pH 7.4, 100 mM KOAc, 3 mM magnesium acetate, 5 mM DTT, 0.01% IGEPAL, tRNA, 25 C 1 h
- appliedConditions: protein: recombinant; tags: FLAG; g2-g8 + t1A
pKd: −log10 of the molar value.

- binder: "bantam / 8mer (dsRNA, guide 5' phosphate) RNA 1: UGAGAUCAUUUUGAAAGCUGAUU RNA 2: UGAUCUCA"
  pKd: 10.72
